Tested on: HCT-116 colon
Measurement notes: NCI tumour cell line growth inhibition, 48 h

Compound: COc1cc2c(cc1O)C1Cc3ccc(OC)c(O)c3C[N+]1(C)CC2 (stereo not given)
TGI: > 100 µM
--
Compound: C/C(=C1\N=C(c2ccccc2)OC1=O)c1ccccc1
TGI: > 100 µM
--
Compound: O=[N+]([O-])c1ccc(-n2nc3ccc4nonc4c3n2)cc1
TGI: > 100 µM
--
Compound: CN(CCCCCl)P(=O)(OCc1ccc([N+](=O)[O-])o1)OCC1OC(n2ccc(N)nc2=O)C(O)C1O (stereo not given)
TGI: 25.9 µM
--
Compound: COc1cc(/C=N/NC(=O)c2cnn3c2NC(c2ccccc2)C3)ccc1OC1CCCC1 (stereo not given)
TGI: 3.46 µM
--
Compound: Cc1cccc(C2NC(=O)c3ccccc3N2)c1 (stereo not given)
TGI: > 100 µM
--
Compound: CC(Nc1ccc(Cl)cc1)c1ccncc1 (stereo not given)
TGI: > 100 µM
--
Compound: CCOP(=O)(/C=C/n1cc(C)c(=O)[nH]c1=O)OCC
TGI: > 100 µM
--
Compound: C=C1C(=O)O[C@@H]2/C=C(/C)[C@@H](OC(C)=O)C/C=C(\C)C(O)[C@@H](OC(=O)/C(C)=C\C)C12 (stereo not given in full)
TGI: 29.8 µM
--
Compound: CC(=O)C(=Cc1cn(C)c(=O)n(C)c1=O)C(C)=O
TGI: 188 µM

* * *

Test system: SF-295 CNS
Measurement notes: NCI tumour cell line growth inhibition, 48 h

Compound: CCN(CC)C(=S)SC(C(=O)Nc1nnc(-c2ccc(Cl)cc2)o1)c1ccccc1 (stereo not given)
Measured on: SF-295 CNS
Unit info: µM
Limit sign: =
TGI: 48.2

Compound: Oc1ccc(C(O)C2CCCCN2)cc1O (stereo not given)
Measured on: SF-295 CNS
Unit info: µM
Limit sign: >
TGI: 100

Compound: COC(=O)C(C(=O)C(=O)Nc1c(C)cccc1C(C)(C)C)c1nc2ccc(Cl)cc2[nH]c1=O (stereo not given)
Measured on: SF-295 CNS
Unit info: µM
Limit sign: >
TGI: 100

Compound: CC1CCC2C(C)C(=O)OC2C2(C)C(=O)C=CC12 (stereo not given)
Measured on: SF-295 CNS
Unit info: µM
Limit sign: >
TGI: 10

Compound: COc1ccc(-n2c(=S)sc3c(Cl)nc(C)nc32)c(OC)c1
Measured on: SF-295 CNS
Unit info: µM
Limit sign: =
TGI: 20.1

* * *

Test system: ACHN renal
Measurement notes: NCI tumour cell line growth inhibition, 48 h

Compound: O=c1c2cccnc2ncn1CCCN1CCCCC1
TGI: > 100 µM

Compound: CCOc1ccc2nc(NC(=O)C(=O)C(C(=O)c3ccccc3F)C3OC(=O)c4ccccc43)sc2c1 (configuration not stated)
TGI: > 100 µM

Compound: COc1cc(O)ccc1C(=S)SC
TGI: > 100 µM

Compound: CC(C)(C)C(=O)Nc1c(C=O)ccc2[nH]cnc12
TGI: > 100 µM

Compound: Clc1ccc2c(NCCCCCCNc3ccnc4cc(Cl)ccc34)ccnc2c1
TGI: 8.91 µM

Compound: Cn1c(I)c(C#C[Si](C)(C)C)c(=O)n(C(=O)c2ccccc2)c1=O
TGI: 7.83 µM

Compound: Cc1cn(CCCCCCOC(=O)NC(CCCNC(N)=O)C(=O)O)c(=O)[nH]c1=O (configuration not stated)
TGI: > 100 µM
